- measuredTarget: Met kinase (Homo sapiens)
- Sequence (P08581 25-1390): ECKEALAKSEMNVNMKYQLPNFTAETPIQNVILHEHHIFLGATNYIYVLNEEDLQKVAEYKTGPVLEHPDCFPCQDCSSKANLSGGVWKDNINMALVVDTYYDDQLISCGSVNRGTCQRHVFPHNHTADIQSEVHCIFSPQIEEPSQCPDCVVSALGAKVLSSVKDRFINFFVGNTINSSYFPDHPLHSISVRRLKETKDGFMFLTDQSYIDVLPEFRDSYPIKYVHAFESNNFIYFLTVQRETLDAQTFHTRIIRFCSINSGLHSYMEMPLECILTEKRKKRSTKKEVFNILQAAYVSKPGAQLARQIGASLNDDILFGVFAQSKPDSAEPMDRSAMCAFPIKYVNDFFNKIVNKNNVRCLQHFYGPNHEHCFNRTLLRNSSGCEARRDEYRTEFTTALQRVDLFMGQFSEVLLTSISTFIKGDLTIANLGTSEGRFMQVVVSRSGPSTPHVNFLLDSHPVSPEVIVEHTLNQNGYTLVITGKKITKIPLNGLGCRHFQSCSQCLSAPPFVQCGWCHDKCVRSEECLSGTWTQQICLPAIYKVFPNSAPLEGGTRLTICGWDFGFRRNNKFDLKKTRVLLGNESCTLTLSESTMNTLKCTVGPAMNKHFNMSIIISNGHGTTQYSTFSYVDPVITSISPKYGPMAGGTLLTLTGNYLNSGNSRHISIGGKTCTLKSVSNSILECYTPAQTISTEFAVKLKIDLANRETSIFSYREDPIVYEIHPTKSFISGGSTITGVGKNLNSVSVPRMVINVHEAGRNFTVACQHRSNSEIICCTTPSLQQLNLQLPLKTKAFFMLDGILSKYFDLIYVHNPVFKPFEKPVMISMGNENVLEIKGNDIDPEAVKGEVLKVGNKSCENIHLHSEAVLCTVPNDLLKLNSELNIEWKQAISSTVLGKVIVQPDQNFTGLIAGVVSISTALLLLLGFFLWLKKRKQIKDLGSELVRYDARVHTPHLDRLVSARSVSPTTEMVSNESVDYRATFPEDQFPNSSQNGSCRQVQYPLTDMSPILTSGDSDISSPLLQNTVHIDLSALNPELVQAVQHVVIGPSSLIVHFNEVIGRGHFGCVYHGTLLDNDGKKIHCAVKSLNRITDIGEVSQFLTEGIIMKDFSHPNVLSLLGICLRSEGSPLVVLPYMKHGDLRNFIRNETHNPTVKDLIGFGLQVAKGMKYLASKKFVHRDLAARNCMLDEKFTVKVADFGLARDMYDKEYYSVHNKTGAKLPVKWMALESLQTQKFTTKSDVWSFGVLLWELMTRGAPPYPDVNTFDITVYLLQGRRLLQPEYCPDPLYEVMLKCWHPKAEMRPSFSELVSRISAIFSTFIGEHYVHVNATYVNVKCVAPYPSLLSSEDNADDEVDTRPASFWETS
- assayComment: Met kinase inhibition (cell)
- Format: cell-based
pIC50: −log10 of the molar value.
Listing: pIC50 of selected molecules

// query State its pIC50 on Met kinase (Homo sapiens): "COCCOc1cnc(-c2cccc(Cc3nnc4ccc(C(=O)N(C)C)nn34)c2)nc1"
// result 5.00 to 7.00

// query State its pIC50 on Met kinase (Homo sapiens): "COc1ccc2nnc(C(F)(F)c3cccc(-c4ncc(-c5cnn(CCN6CCCC6)c5)cn4)c3)n2n1"
// result 7.00 to 9.00

// query State its pIC50 on Met kinase (Homo sapiens): "CCCNC(=O)c1ccc2nnc(Cc3cccc(-c4ncc(OCCOC)cn4)c3)n2n1"
// result 5.00 to 7.00

// query State its pIC50 on Met kinase (Homo sapiens): "COCCOc1cnc(-c2cccc(Cc3nnc4ccc(C(=O)NCCO)nn34)c2)nc1"
// result < 5.00

// query State its pIC50 on Met kinase (Homo sapiens): "CNC(=O)c1ccc2nnc(Cc3cccc(-c4ncc(OCCOC)cn4)c3)n2n1"
// result 5.00 to 7.00

// query State its pIC50 on Met kinase (Homo sapiens): "COCCOc1cnc(-c2cccc(Cc3nnc4ccc(C(=O)O)nn34)c2)nc1"
// result 5.00 to 7.00
